molecular target: Cyclin-dependent kinase-like 1 (Homo sapiens) (UniProt Q00532)
Sequence (Q00532 whole entry): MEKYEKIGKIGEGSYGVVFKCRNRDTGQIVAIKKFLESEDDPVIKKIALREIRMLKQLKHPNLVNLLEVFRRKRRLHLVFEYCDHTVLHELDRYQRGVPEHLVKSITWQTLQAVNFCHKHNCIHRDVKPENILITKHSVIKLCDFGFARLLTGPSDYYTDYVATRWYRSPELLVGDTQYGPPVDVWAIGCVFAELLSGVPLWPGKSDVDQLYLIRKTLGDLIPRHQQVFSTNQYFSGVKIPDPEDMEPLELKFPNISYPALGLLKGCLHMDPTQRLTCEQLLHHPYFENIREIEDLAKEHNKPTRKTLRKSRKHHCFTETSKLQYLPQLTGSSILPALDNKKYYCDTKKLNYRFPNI
Label scheme, based on ΔTm: low range (below -0.1 °C), mid range (-0.1 °C to below 0.6 °C), high range (0.6 °C or more)

> print(dat)
                       smilesrepresentation  classassignment
1  NC(=O)c1ccc(-c2nc(-c3ccc4c(c3)OCCO4)c(-c3ccccn3)[nH]2)cc1        low range
2  CC(=O)O/N=C1/C(=C2/C(=O)Nc3cc(Br)ccc32)Nc2ccccc21       high range
3      O=c1cc(-c2ccc(O)cc2)oc2cc(O)cc(O)c12       high range
4        C/C(O)=C(\C#N)C(=O)Nc1cc(Br)ccc1Br       high range
5  N#CCCc1ccc2c(c1)-c1[nH]c3ccc([N+](=O)[O-])cc3c1CC(=O)N2        mid range
6  CC(C)(C)c1cc(C=C2C(=O)C=CC2=O)cc(C(C)(C)C)c1O        low range

### Prompt Please classify: `CC(C)(C)n1nc(-c2cccc3ccccc23)c2c(N)ncnc21`
### Response low range

### Prompt Assign a category based on measured ΔTm for `CC(C)[C@H](CO)Nc1nc(Nc2cc(N)cc(Cl)c2)c2ncn(C(C)C)c2n1` and give only the class name.
### Response high range

### Prompt Hey, which category is `Cc1ccc(NC(=O)c2ccc(CN3CCN(C)CC3)cc2)cc1Nc1nccc(-c2cccnc2)n1` in, do you know?
### Response mid range

### Prompt Could you tell me which band `CCN1/C(=C/C(C)=O)Sc2ccc(OC)cc21` belongs to?
### Response mid range

### Prompt Determine which band this compound sits in: `c1ccc(-c2n[nH]c3c2oc2ccccc23)cc1`
### Response mid range

The origin of these recorded values is ChEMBL document CHEMBL1145498.
